- Protocol: Inhibition of PDGF-induced proliferation in RAOSMC
- Set-up: species or system Rattus norvegicus
Known pIC50 of a selection of molecules
Please reply with the value in numeric form only.

INSERT INTO assay_data (structure_string, measurement_kind, result) VALUES
  ('Cc1ccc(NC2=C(Cl)C(=O)c3nc(-c4cccnc4)[nH]c3C2=O)cc1', 'pIC50', 4.35),
  ('O=C1C(Cl)=C(Nc2ccc(O)cc2)C(=O)c2nc(-c3ccccn3)c(-c3ccccn3)nc21', 'pIC50', 5.26),
  ('Cc1nc2c(nc1C)C(=O)C(Nc1ccc(F)cc1)=CC2=O', 'pIC50', 5.51),
  ('Cc1nc2c([nH]1)C(=O)/C(=N/c1ccc(Cl)cc1)C(Cl)=C2O', 'pIC50', 5.55),
  ('O=C1C(Cl)=C(Nc2ccc(C(F)(F)F)cc2)C(=O)c2[nH]cnc21', 'pIC50', 5.6);

Can you share its pIC50? I mean this molecule: O=C1C(Cl)=C(Nc2ccccc2F)C(=O)c2[nH]cnc21 5.77

Can you share its pIC50? I mean this molecule: COc1ccc(NC2=C(Cl)C(=O)c3nc(-c4ccccn4)c(-c4ccccn4)nc3C2=O)cc1 5.46

Can you share its pIC50? I mean this molecule: O=C1C(Cl)=C(Nc2ccccc2)C(=O)c2[nH]cnc21 5.26

Can you share its pIC50? I mean this molecule: O=C1C(Cl)=C(Nc2ccc(Cl)cc2)C(=O)c2nc(-c3ccccn3)c(-c3ccccn3)nc21 5.82

Can you share its pIC50? I mean this molecule: COc1ccc(NC2=C(Cl)C(=O)c3nc(-c4ccncc4)[nH]c3C2=O)cc1 4.3

Can you share its pIC50? I mean this molecule: O=C1C(Cl)=C(Nc2cccc(Br)c2)C(=O)c2[nH]c(-c3ccncc3)nc21 4.7

Can you share its pIC50? I mean this molecule: O=C1C(Br)=C(Nc2ccc(F)cc2)C(=O)c2[nH]cnc21 6

Can you share its pIC50? I mean this molecule: O=C1C(Cl)=C(Nc2ccc(I)cc2)C(=O)c2[nH]cnc21 5.89

Can you share its pIC50? I mean this molecule: O=C1C(Cl)=C(Nc2ccc(Cl)cc2)C(=O)c2[nH]c(C(F)(F)F)nc21 4.82

Can you share its pIC50? I mean this molecule: O=C1C(Cl)=C(Nc2ccc(Cl)c(F)c2)C(=O)c2[nH]c(-c3ccncc3)nc21 4.6

Can you share its pIC50? I mean this molecule: CCc1ccc(NC2=C(Cl)C(=O)c3nc(C)[nH]c3C2=O)cc1 5.52

Measured values drawn from ChEMBL document CHEMBL1142541 for this set.
